Documented pIC50 across a set of compounds
target: GST-BRD4 (binding domain 1, amino acids 44-168) (Homo sapiens, UniProt O60885); test: Bromodomain binding assay (FRET); conditions: BRD4 binding domain 1, tetracetylated histone 4 peptide
pIC50: −log10 of the molar value.

CC(=O)N1c2ccc(-c3ccc(CNC(=O)c4cn5cc(-c6cnc(N)nc6)nc(N6CCOCC6)c5n4)s3)cc2CCC1C (stereo not drawn) [Cpd 005]: 6.30 to 7.00
CC(=O)N1c2ccc(-c3ccc(C(=O)CNC(=O)c4cn5cc(-c6cnc(N)nc6)nc(N6CCOCC6)c5n4)cc3)cc2CCC1C (stereo not drawn) [Cpd 008]: < 6.30

Now consider a different compound.
INPUT: Give pIC50 (GST-BRD4 (binding domain 1, amino acids 44-168) (Homo sapiens, UniProt O60885)) of the following compound: CC(=O)N1c2ccc(-c3ccc(C(=O)N4CCN(C(=O)c5cn6cc(-c7cnc(N)nc7)nc(N7CCOCC7)c6n5)CC4)cc3)cc2CCC1C (stereo not drawn) [Cpd 001]
OUTPUT: < 6.30

The origin of these recorded values is patent US20230312577A1.
